experimental-protocol: Solubility experiments (approximate solubility by solvent aliquot addition)
Assay type: physicochemical
test-context: organic solvent or mixture, thermodynamic from solid; Solvent: methyl tert-butyl ether (MTBE); RT (ca. 22° C.); read-out: Solubility (mg/mL) RT (ca. 22° C.)
endpoint: solubility (mg/mL)
# value in mg/mL; strip the unit string

Short answer for O=C(O)CNC(=O)c1ncc(-c2cccc(Cl)c2)cc1O [Form A of Compound (I)] : solubility was 14

###

experimental-protocol: Solubility experiments (approximate solubility by solvent aliquot addition)
Format: physicochemical
test-context: organic solvent or mixture, thermodynamic from solid; Solvent: Acetonitrile; ca. 50° C.; read-out: Solubility (mg/mL) (ca. 50° C.)
endpoint: solubility (mg/mL)
# value in mg/mL; strip the unit string

Short answer for O=C(O)CNC(=O)c1ncc(-c2cccc(Cl)c2)cc1O [Form A of Compound (I)] : solubility was 13

###

experimental-protocol: Solubility experiments (approximate solubility by solvent aliquot addition)
Type: physicochemical
test-context: organic solvent or mixture, thermodynamic from solid; Solvent: Methyl ethyl ketone (MEK); RT (ca. 22° C.); read-out: Solubility (mg/mL) RT (ca. 22° C.)
endpoint: solubility

Short answer for O=C(O)CNC(=O)c1ncc(-c2cccc(Cl)c2)cc1O [Form A of Compound (I)] : solubility was < 100 mg/mL

###

experimental-protocol: Solubility experiments (approximate solubility by solvent aliquot addition)
Format: physicochemical
test-context: organic solvent or mixture, thermodynamic from solid; Solvent: Benzonitrile; RT (ca. 22° C.); read-out: Solubility (mg/mL) RT (ca. 22° C.)
endpoint: solubility

Short answer for O=C(O)CNC(=O)c1ncc(-c2cccc(Cl)c2)cc1O [Form A of Compound (I)] : solubility was < 10 mg/mL

###

experimental-protocol: Solubility experiments (approximate solubility by solvent aliquot addition)
Format: physicochemical
test-context: organic solvent or mixture, thermodynamic from solid; Solvent: Acetone/Water (3%); RT (ca. 22° C.); read-out: Solubility (mg/mL) RT (ca. 22° C.)
endpoint: solubility

Short answer for O=C(O)CNC(=O)c1ncc(-c2cccc(Cl)c2)cc1O [Form A of Compound (I)] : solubility was < 200 mg/mL

###

experimental-protocol: Solubility experiments (approximate solubility by solvent aliquot addition)
Format: physicochemical
test-context: organic solvent or mixture, thermodynamic from solid; Solvent: Methyl isobutyl ketone (MIBK); ca. 50° C.; read-out: Solubility (mg/mL) (ca. 50° C.)
Experimental: Approximately 20 mg of Form A of Compound (1) was placed in each of 48 vials and 5 volume aliquots of the appropriate solvent systems were added to the appropriate vial. Between each addition, the mixture was checked for dissolution and if no dissolution was apparent, the mixture was warmed to ca. 50° C. and checked again. This procedure was continued until dissolution was observed or until 100 volumes of solvent had been added.
endpoint: solubility (mg/mL)
# value in mg/mL; strip the unit string

Short answer for O=C(O)CNC(=O)c1ncc(-c2cccc(Cl)c2)cc1O [Form A of Compound (I)] : solubility was 34

###

experimental-protocol: Solubility experiments (approximate solubility by solvent aliquot addition)
Format: physicochemical
test-context: organic solvent or mixture, thermodynamic from solid; Solvent: Methanol (MeOH); ca. 50° C.; read-out: Solubility (mg/mL) (ca. 50° C.)
endpoint: solubility (mg/mL)
# value in mg/mL; strip the unit string

Short answer for O=C(O)CNC(=O)c1ncc(-c2cccc(Cl)c2)cc1O [Form A of Compound (I)] : solubility was 51

###

experimental-protocol: Solubility experiments (approximate solubility by solvent aliquot addition)
Assay type: physicochemical
test-context: thermodynamic from solid; Solvent: Water; ca. 50° C.; read-out: Solubility (mg/mL) (ca. 50° C.)
Procedure: Approximately 20 mg of Form A of Compound (1) was placed in each of 48 vials and 5 volume aliquots of the appropriate solvent systems were added to the appropriate vial. Between each addition, the mixture was checked for dissolution and if no dissolution was apparent, the mixture was warmed to ca. 50° C. and checked again. This procedure was continued until dissolution was observed or until 100 volumes of solvent had been added.
endpoint: solubility

Short answer for O=C(O)CNC(=O)c1ncc(-c2cccc(Cl)c2)cc1O [Form A of Compound (I)] : solubility was < 10 mg/mL

###

experimental-protocol: Solubility experiments (approximate solubility by solvent aliquot addition)
Type: physicochemical
test-context: organic solvent or mixture, thermodynamic from solid; Solvent: Methyl acetate (MeOAc); ca. 50° C.; read-out: Solubility (mg/mL) (ca. 50° C.)
Procedure: Approximately 20 mg of Form A of Compound (1) was placed in each of 48 vials and 5 volume aliquots of the appropriate solvent systems were added to the appropriate vial. Between each addition, the mixture was checked for dissolution and if no dissolution was apparent, the mixture was warmed to ca. 50° C. and checked again. This procedure was continued until dissolution was observed or until 100 volumes of solvent had been added.
endpoint: solubility (mg/mL)
# value in mg/mL; strip the unit string

Short answer for O=C(O)CNC(=O)c1ncc(-c2cccc(Cl)c2)cc1O [Form A of Compound (I)] : solubility was 68

###

experimental-protocol: Solubility experiments (approximate solubility by solvent aliquot addition)
Type: physicochemical
test-context: organic solvent or mixture, thermodynamic from solid; Solvent: Diisopropyl ether (DIPE); RT (ca. 22° C.); read-out: Solubility (mg/mL) RT (ca. 22° C.)
endpoint: solubility

Short answer for O=C(O)CNC(=O)c1ncc(-c2cccc(Cl)c2)cc1O [Form A of Compound (I)] : solubility was < 10 mg/mL

###

experimental-protocol: Solubility experiments (approximate solubility by solvent aliquot addition)
Assay type: physicochemical
test-context: organic solvent or mixture, thermodynamic from solid; Solvent: 1-Butanol (1-BuOH); RT (ca. 22° C.); read-out: Solubility (mg/mL) RT (ca. 22° C.)
endpoint: solubility

Short answer for O=C(O)CNC(=O)c1ncc(-c2cccc(Cl)c2)cc1O [Form A of Compound (I)] : solubility was < 20 mg/mL

###

experimental-protocol: Solubility experiments (approximate solubility by solvent aliquot addition)
Format: physicochemical
test-context: organic solvent or mixture, thermodynamic from solid; Solvent: Tetrahydrofuran (THF); RT (ca. 22° C.); read-out: Solubility (mg/mL) RT (ca. 22° C.)
endpoint: solubility

Short answer for O=C(O)CNC(=O)c1ncc(-c2cccc(Cl)c2)cc1O [Form A of Compound (I)] : solubility was > 200 mg/mL

###

experimental-protocol: Solubility experiments (approximate solubility by solvent aliquot addition)
Type: physicochemical
test-context: organic solvent or mixture, thermodynamic from solid; Solvent: Isopropyl acetate (iPrOAc); ca. 50° C.; read-out: Solubility (mg/mL) (ca. 50° C.)
endpoint: solubility (mg/mL)
# value in mg/mL; strip the unit string

Short answer for O=C(O)CNC(=O)c1ncc(-c2cccc(Cl)c2)cc1O [Form A of Compound (I)] : solubility was 26

###

experimental-protocol: Solubility experiments (approximate solubility by solvent aliquot addition)
Type: physicochemical
test-context: organic solvent or mixture, thermodynamic from solid; Solvent: MeOH/Water (1%); RT (ca. 22° C.); read-out: Solubility (mg/mL) RT (ca. 22° C.)
endpoint: solubility

Short answer for O=C(O)CNC(=O)c1ncc(-c2cccc(Cl)c2)cc1O [Form A of Compound (I)] : solubility was < 40 mg/mL

###

experimental-protocol: Solubility experiments (approximate solubility by solvent aliquot addition)
Format: physicochemical
test-context: organic solvent or mixture, thermodynamic from solid; Solvent: Ethylene glycol; RT (ca. 22° C.); read-out: Solubility (mg/mL) RT (ca. 22° C.)
endpoint: solubility

Short answer for O=C(O)CNC(=O)c1ncc(-c2cccc(Cl)c2)cc1O [Form A of Compound (I)] : solubility was < 10 mg/mL

###

experimental-protocol: Solubility experiments (approximate solubility by solvent aliquot addition)
Format: physicochemical
test-context: organic solvent or mixture, thermodynamic from solid; Solvent: 1-Butanol (1-BuOH); ca. 50° C.; read-out: Solubility (mg/mL) (ca. 50° C.)
endpoint: solubility
Kindly report the value followed by its unit.

Short answer for O=C(O)CNC(=O)c1ncc(-c2cccc(Cl)c2)cc1O [Form A of Compound (I)] : solubility was 20 mg/mL

###

experimental-protocol: Solubility experiments (approximate solubility by solvent aliquot addition)
Format: physicochemical
test-context: organic solvent or mixture, thermodynamic from solid; Solvent: 1,4-Dioxane; ca. 50° C.; read-out: Solubility (mg/mL) (ca. 50° C.)
endpoint: solubility

Short answer for O=C(O)CNC(=O)c1ncc(-c2cccc(Cl)c2)cc1O [Form A of Compound (I)] : solubility was > 200 mg/mL

###

experimental-protocol: Solubility experiments (approximate solubility by solvent aliquot addition)
Format: physicochemical
test-context: organic solvent or mixture, thermodynamic from solid; Solvent: N-methyl-2-pyrrolidone (NMP); ca. 50° C.; read-out: Solubility (mg/mL) (ca. 50° C.)
endpoint: solubility

Short answer for O=C(O)CNC(=O)c1ncc(-c2cccc(Cl)c2)cc1O [Form A of Compound (I)] : solubility was > 200 mg/mL

###

experimental-protocol: Solubility experiments (approximate solubility by solvent aliquot addition)
Format: physicochemical
test-context: organic solvent or mixture, thermodynamic from solid; Solvent: Acetone; RT (ca. 22° C.); read-out: Solubility (mg/mL) RT (ca. 22° C.)
endpoint: solubility (mg/mL)
# value in mg/mL; strip the unit string

Short answer for O=C(O)CNC(=O)c1ncc(-c2cccc(Cl)c2)cc1O [Form A of Compound (I)] : solubility was 100
